TARGET OR SYSTEM: Glutamate NMDA receptor
EXPERIMENTAL PROTOCOL: Inhibition of [3H]MK-801 binding to the NMDA receptor of rat hippocampal membranes, measured in buffer containing 50 mM TRIS acetate, pH 7
Assay type: cell membranes, Membrane

# COMPOUND, IC50 (µM)
measured = [
    ("N=C(N)c1ccc(OCCCCCOc2ccc(C(=N)N)cc2)cc1 [PENTAMIDINE]", 3.06),
    ("COc1cc(C(=N)N)ccc1OC/C=C\\COc1ccc(C(=N)N)cc1OC", 95),
    ("N=C(N)c1ccc(OC/C=C/COc2ccc(C(=N)N)cc2)cc1", 3.81),
    ("N=C(N)c1ccc(OC[C@@H](O)[C@H](O)COc2ccc(C(=N)N)cc2)cc1", 66),
    ("N=C(N)c1ccc(OCCCCOc2ccc(C(=N)N)cc2)cc1", 5.18),
]

###

TARGET OR SYSTEM: Glutamate NMDA receptor
EXPERIMENTAL PROTOCOL: Inhibition of [3H]MK-801 binding to the NMDA receptor of rat hippocampal membranes, measured in buffer containing 50 mM TRIS acetate, pH 7
Type: cell membranes, Membrane
# IC50 annotations

# SAMPLE SMILES, TARGET OR SYSTEM, IC50 (µM)
data = [
    ("N=C(N)c1ccc(OC/C=C\\COc2ccc(C(=N)N)cc2)cc1", "Glutamate NMDA receptor", 4.26),
    ("C(=C/COc1ccc(C2=NCCN2)cc1)/COc1ccc(C2=NCCN2)cc1", "Glutamate NMDA receptor", 26.7),
    ("COc1cc(C2=NCCN2)ccc1OC/C=C/COc1ccc(C2=NCCN2)cc1OC", "Glutamate NMDA receptor", 63),
]

###

TARGET OR SYSTEM: Glutamate NMDA receptor (Rattus norvegicus) (UniProt P35439+Q00959+Q00960+Q00961+Q62645+Q8VHN2+Q9R1M7)
EXPERIMENTAL PROTOCOL: Effect of spermine on the inhibition of [3H]-MK-801 binding to the NMDA receptor TRIS acetate, pH 7
Type: protein-complex assay
// Increase in IC50 lookup, one value per entry

# SAMPLE SMILES, Increase in IC50
data = [
    ("N=C(N)c1ccc(OC/C=C/COc2ccc(C(=N)N)cc2)cc1", 9.5),
    ("N=C(N)c1ccc(OCCCCOc2ccc(C(=N)N)cc2)cc1", 10.2),
    ("C(=C/COc1ccc(C2=NCCN2)cc1)/COc1ccc(C2=NCCN2)cc1", 5.48),
    ("C(=C\\COc1ccc(C2=NCCN2)cc1)/COc1ccc(C2=NCCN2)cc1", 4.14),
    ("N=C(N)c1ccc(OC/C=C\\COc2ccc(C(=N)N)cc2)cc1", 11.9),
    ("N=C(N)c1ccc(OC[C@@H](O)[C@H](O)COc2ccc(C(=N)N)cc2)cc1", 9.3),
    ("N=C(N)c1ccc(OCCCCCOc2ccc(C(=N)N)cc2)cc1", 9.5),
]
